# system: rat CB-1 receptor (Rattus norvegicus, UniProt P20272)
# Construct: The tissue obtained from the brain of SD rats was homogenized; from tissue; host or cells: brain of SD rats (membrane pellet of homogenate)
# Sequence (P20272 whole entry): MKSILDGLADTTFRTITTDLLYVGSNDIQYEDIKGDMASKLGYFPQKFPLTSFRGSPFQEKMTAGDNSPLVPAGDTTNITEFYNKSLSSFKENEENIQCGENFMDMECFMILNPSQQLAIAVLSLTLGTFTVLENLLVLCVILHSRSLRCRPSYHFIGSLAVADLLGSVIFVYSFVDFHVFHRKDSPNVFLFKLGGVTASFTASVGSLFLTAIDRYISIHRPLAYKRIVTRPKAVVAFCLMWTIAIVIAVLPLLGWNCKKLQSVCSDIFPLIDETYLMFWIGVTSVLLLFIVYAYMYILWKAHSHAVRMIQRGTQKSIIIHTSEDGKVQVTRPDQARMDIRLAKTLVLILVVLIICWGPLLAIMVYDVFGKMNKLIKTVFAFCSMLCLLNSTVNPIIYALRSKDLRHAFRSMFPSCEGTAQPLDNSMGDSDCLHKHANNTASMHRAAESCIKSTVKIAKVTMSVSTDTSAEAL
# assay-overview: rat CB-1 receptor binding protocol with [3H]CP-55940
# reported-conditions: [3H]CP-55940, brain tissue of SD rats, 30 °C for 60 min; read-out: IC50
Consider the following compounds and their measured pIC50 readings.
# pIC50 = -log10(concentration in molar units)

Record excerpt, results attached:
{"columns": ["compound", "pIC50"],
 "data": [
  ["CCc1c(-c2nnc(C(C)(C)C)o2)nc(-c2ccccc2Cl)n1-c1ccc(Br)cc1", 7.83],
  ["Cc1c(-c2ncc(C(C)C)s2)nc(-c2ccc(Cl)cc2Cl)n1-c1ccc(Cl)cc1", 7.80],
  ["Cc1c(-c2ncc(C(C)(C)C)s2)nc(-c2ccc(Cl)cc2Cl)n1-c1ccc(Br)cc1", 7.80]
]}

Consider now this further compound.
Fill in reported pIC50 for this entry: CCc1c(-c2nnc(C(C)CC)o2)nc(-c2ccc(Cl)cc2Cl)n1-c1ccc(Cl)cc1 (stereo not shown)
7.75
